B1: VEGF-DΔNΔC [human] / Recombinant human VEGFR-3-Fc chimera [human] (parent complex)
chain 1: FYDIETLKVIDEEWQRTQCSPRETCVEVASELGKSTNTFFKPPCVNVFRCGGCCNEESLICMNTSTSYISKQLFEISVPLTSVPELVPVKVANHTGCKCLPTAPRHPYS
chain 2: YSMTPPTLNITEESHVIDTGDSLSISCRGQHPLEWAWPGAQEAPATGDKDSEDTGVVRDCEGTDARPYCKVLLLHEVHANDTGSYVCYYKYIKARIEGTTAASSYVFVRDFEQPFINKPDTLLVNRKDAMWVPCLVSIPGLNVTLRSQSSVLWPDGQEVVWDDRRGMLVSTPLLHDALYLQCETTWGDQDFLSNPFLVHITGNELYDIQLLPRKSLELLVGEKLVLNCTVWAEFNSGVTFDWDYPGKQAERGKWVPERRSQQTHTELSSILTIHNVSQHDLGSYVCKANNGIQRFRESTEVIVHENPFISVEWLKGPILEATAGDELVKLPVKLAAYPPPEFQWYKDGKALSGRHSPHALVLKEVTEASTGTYTLALWNSAAGLRRNISLELVVNVPPQIHEKEASSPSIYSRHSRQALTCTAYGVPLPLSIQWHWRPWTPCKMFAQRSLRRRQQQDLMPQCRDWRAVTTQDAVNPIESLDTWTEFVEGKNKTVSKLVIQNANVSAMYKCVVSNKVGQDERLIYFYVTTIPDGFTIESKPSEELLEGQPVLLSCQADSYKYEHLRWYRLNLSTLHDAHGNPLLLDCKNVHLFATPLAASLEEVAPGARHATLSLSIPRVAPEHEGHYVCEVQDRRSHDKHCHKKYLSVQALEAPRLTQNLTDLLVNVSDSLEMQCLVAGAHAPSIVWYKDERLLEEKSGVDLADSNQKLSIQRVREEDAGRYLCSVCNAKGCVNSSASVAVEGSEDKGSME

Variants of: B1
Experiment: ELISA; The same amount of each VEGF-DΔNΔC variant was used; assays conducted three times; parent: 100; read off a plot
Property: percent of parent

Examples from the recorded data:
residues="chain 1 FYDIEALKVIDEEWQRTQCSPRETCVEVASELGKSTNTFFKPPCVNVFRCGGCCNEESLICMNTSTSYISKQLFEISVPLTSVPELVPVKVANHTGCKCLPTAPRHPYS [chain 1 T6A]" result=~97%
residues="chain 1 FYDIETLKVIDEEWQATQCSPRETCVEVASELGKSTNTFFKPPCVNVFRCGGCCNEESLICMNTSTSYISKQLFEISVPLTSVPELVPVKVANHTGCKCLPTAPRHPYS [chain 1 R16A]" result=~100%
residues="chain 1 FYDAETLKVIDEEWQRTQCSPRETCVEVASELGKSTNTFFKPPCVNVFRCGGCCNEESLICMNTSTSYISKQLFEISVPLTSVPELVPVKVANHTGCKCLPTAPRHPYS [chain 1 I4A]" result=~99%

Reported percent of parent for chain 1 FYDIETLKAIDEEWQRTQCSPRETCVEVASELGKSTNTFFKPPCVNVFRCGGCCNEESLICMNTSTSYISKQLFEISVPLTSVPELVPVKVANHTGCKCLPTAPRHPYS [chain 1 V9A] : what is it?
~100%

For the variant shown here, chain 1 FYDIETAKVIDEEWQRTQCSPRETCVEVASELGKSTNTFFKPPCVNVFRCGGCCNEESLICMNTSTSYISKQLFEISVPLTSVPELVPVKVANHTGCKCLPTAPRHPYS [chain 1 L7A] , give the reported percent of parent.
~3%

Requested read-out: percent of parent. Entry: chain 1 FYDIETLAVIDEEWQRTQCSPRETCVEVASELGKSTNTFFKPPCVNVFRCGGCCNEESLICMNTSTSYISKQLFEISVPLTSVPELVPVKVANHTGCKCLPTAPRHPYS [chain 1 K8A]
~87%

// lookup percent of parent for chain 1 FYDIETLKVIDAEWQRTQCSPRETCVEVASELGKSTNTFFKPPCVNVFRCGGCCNEESLICMNTSTSYISKQLFEISVPLTSVPELVPVKVANHTGCKCLPTAPRHPYS [chain 1 E12A]
~100%

# percent of parent lookup, item chain 1 FADIETLKVIDEEWQRTQCSPRETCVEVASELGKSTNTFFKPPCVNVFRCGGCCNEESLICMNTSTSYISKQLFEISVPLTSVPELVPVKVANHTGCKCLPTAPRHPYS [chain 1 Y2A]
~23%

Look up percent of parent for this variant: chain 1 FYDIETLKVIDEEAQRTQCSPRETCVEVASELGKSTNTFFKPPCVNVFRCGGCCNEESLICMNTSTSYISKQLFEISVPLTSVPELVPVKVANHTGCKCLPTAPRHPYS [chain 1 W14A]
~72%

Recorded percent of parent for chain 1 FYDIETLKVIDEAWQRTQCSPRETCVEVASELGKSTNTFFKPPCVNVFRCGGCCNEESLICMNTSTSYISKQLFEISVPLTSVPELVPVKVANHTGCKCLPTAPRHPYS [chain 1 E13A] , please?
~13%

For the variant chain 1 FYDIATLKVIDEEWQRTQCSPRETCVEVASELGKSTNTFFKPPCVNVFRCGGCCNEESLICMNTSTSYISKQLFEISVPLTSVPELVPVKVANHTGCKCLPTAPRHPYS [chain 1 E5A] , what percent of parent is on record?
~99%

meta.source: paper PMC5207153
